- tested-system: Proto-oncogene tyrosine-protein kinase ROS (Homo sapiens) (UniProt P08922)
- Sequence (P08922 whole entry): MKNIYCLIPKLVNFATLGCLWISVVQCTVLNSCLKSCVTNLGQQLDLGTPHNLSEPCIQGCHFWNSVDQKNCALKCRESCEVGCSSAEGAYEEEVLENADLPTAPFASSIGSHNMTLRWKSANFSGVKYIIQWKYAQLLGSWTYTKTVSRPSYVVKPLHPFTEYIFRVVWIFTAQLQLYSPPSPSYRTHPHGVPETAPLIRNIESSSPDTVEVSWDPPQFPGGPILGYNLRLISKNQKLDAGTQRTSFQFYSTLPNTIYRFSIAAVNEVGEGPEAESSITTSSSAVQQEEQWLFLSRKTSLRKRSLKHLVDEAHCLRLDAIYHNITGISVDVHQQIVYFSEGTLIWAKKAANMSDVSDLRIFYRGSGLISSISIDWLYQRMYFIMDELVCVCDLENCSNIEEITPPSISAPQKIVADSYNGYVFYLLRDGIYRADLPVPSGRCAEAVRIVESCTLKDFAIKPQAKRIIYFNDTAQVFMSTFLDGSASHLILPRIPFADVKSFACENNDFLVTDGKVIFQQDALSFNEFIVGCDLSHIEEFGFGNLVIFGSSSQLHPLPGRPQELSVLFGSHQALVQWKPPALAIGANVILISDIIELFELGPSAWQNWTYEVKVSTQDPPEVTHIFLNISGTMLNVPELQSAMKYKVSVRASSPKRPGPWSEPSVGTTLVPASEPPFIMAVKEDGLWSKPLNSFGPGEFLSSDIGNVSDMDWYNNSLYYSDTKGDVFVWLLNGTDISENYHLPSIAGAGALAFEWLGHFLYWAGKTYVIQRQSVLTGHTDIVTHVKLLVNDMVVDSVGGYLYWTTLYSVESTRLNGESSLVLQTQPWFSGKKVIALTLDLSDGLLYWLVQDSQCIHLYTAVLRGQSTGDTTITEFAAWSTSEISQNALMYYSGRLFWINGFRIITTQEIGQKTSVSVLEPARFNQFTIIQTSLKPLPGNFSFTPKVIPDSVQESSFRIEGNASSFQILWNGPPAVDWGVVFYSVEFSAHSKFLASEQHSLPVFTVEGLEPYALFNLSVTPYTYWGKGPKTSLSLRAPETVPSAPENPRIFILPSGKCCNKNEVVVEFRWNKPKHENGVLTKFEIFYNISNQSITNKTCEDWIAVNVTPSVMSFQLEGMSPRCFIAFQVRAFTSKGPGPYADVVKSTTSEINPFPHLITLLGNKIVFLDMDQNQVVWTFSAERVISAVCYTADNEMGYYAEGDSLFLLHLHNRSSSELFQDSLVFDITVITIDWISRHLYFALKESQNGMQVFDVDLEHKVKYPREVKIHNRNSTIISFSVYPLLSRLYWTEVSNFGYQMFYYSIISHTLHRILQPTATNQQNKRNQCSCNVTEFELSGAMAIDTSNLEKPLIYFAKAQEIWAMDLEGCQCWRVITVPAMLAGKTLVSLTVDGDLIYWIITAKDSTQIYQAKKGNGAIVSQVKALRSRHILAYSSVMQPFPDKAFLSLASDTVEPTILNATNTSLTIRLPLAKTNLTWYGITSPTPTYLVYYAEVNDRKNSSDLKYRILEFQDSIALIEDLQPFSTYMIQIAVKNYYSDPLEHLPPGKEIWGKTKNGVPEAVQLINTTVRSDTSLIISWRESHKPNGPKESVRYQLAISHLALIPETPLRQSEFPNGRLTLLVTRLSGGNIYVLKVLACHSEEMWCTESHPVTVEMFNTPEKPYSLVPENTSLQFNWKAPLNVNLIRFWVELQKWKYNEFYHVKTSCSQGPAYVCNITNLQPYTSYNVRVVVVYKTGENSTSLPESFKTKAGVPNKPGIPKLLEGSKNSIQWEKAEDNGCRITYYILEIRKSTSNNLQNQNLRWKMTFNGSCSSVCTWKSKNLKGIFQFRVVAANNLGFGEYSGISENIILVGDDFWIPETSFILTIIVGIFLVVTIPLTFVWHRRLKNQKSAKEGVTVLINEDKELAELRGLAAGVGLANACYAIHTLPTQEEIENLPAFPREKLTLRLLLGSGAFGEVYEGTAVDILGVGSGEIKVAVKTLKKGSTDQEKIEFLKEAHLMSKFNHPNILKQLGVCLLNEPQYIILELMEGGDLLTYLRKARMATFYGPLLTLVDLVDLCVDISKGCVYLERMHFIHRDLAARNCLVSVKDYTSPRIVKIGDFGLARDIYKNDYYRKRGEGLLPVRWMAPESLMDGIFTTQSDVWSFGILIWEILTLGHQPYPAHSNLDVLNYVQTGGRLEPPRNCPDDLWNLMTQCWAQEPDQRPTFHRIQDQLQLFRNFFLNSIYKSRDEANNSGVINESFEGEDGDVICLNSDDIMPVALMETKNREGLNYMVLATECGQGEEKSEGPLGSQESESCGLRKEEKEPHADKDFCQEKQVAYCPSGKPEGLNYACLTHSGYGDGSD
- test-context: at 0.1 µM
- Description: GSK_PKIS: ROS mean inhibition at 0.1 uM [Nanosyn]

| compound | inhibition / % |
| --- | --- |
| N#Cc1c(NC(=O)c2ccc(F)cc2)sc2c1CCCC2 | 0.38 |
| NS(=O)(=O)c1ccc(Nc2ncc(-c3ccccc3)o2)cc1 | 3.2 |
| CS(=O)(=O)CCNCc1ccc(-c2ccc3ncnc(Nc4ccc(OCc5ccccc5)c(C(F)(F)F)c4)c3c2)o1 | 3.04 |
| Nc1nc(-c2cccc(Cl)c2)c(-c2ccc3ncccc3n2)s1 | 6.74 |
| COc1cc(N2CCN(C(C)C)CC2)ccc1Nc1nc(Nc2ccc(F)cc2C(N)=O)c2cc[nH]c2n1 | 51.8 |
| COc1ccc2c(-c3ccnc(Nc4cccc(OC(F)(F)F)c4)n3)cnn2n1 | 11.1 |
| COc1ccc2[nH]c3c4[nH]c5ccc(OC)cc5c4c4c(c3c2c1)C(=O)NC4=O | 55.8 |
| COc1cc(Nc2nccc(Nc3ccc4c(C)n[nH]c4c3)n2)cc(OC)c1OC | 40.6 |
| CCCN(CCS(C)(=O)=O)Cc1ccc(-c2ccc3ncnc(Nc4ccc(OCc5cccc(F)c5)c(Cl)c4)c3c2)o1 | 2.72 |
| CNC(=O)c1cc(-c2ccc(F)cc2)cc(-c2ccc(S(=O)(=O)N3CCCC3)cc2)c1N | 4.64 |
| CCn1c(-c2nonc2N)nc2ccccc21 | 9.11 |
| CC(=O)Nc1cccc(C#Cc2cncnc2Nc2ccc(OCc3cccc(F)c3)c(Cl)c2)c1 | 7.46 |
| CNC(=O)c1cncc(/C=C/c2ccccc2Cl)c1 | -2.16 |
| CN1CCC(n2cnc(-c3ccc(F)cc3)c2-c2ccnc(Nc3ccccc3)n2)CC1 | 1.54 |
| CN1CCC(n2cnc(-c3ccc(F)cc3)c2-c2ccnc(N)n2)CC1 | 2.9 |
| CC1=C(C(=O)Nc2cc(Cl)c3[nH]ncc3c2)C(c2ccc(C(F)(F)F)cc2)CC(=O)N1 (stereo unspecified) | 4.57 |
| Cc1cccc(Nc2ncc(-c3ccccc3)o2)c1 | 6.3 |
| COc1ccc(-c2cc3c(N)ncnc3o2)cc1 | 2.19 |
| CCn1cc(-c2ccnc3[nH]ccc23)c(-c2cccc(NC(=O)Nc3ccc(OCc4ccccc4)cc3)c2)n1 | 1.33 |
| NC(=O)c1sc(-n2cnc3ccc(C(F)(F)F)cc32)cc1OCc1ccccc1Br | 3.4 |
| COc1ccc(-c2nn3ncccc3c2-c2ccnc(Nc3ccc4c(c3)OCCO4)n2)cc1 | 6.79 |
